measurement.kind: Ki (µM)
Form entry: value (µM) — number only.

Query string: Write Ki of PL-3994 (Hept-cyclo(Cys-His-Phe-D-Ala-Gly-Arg-D-Nle-Asp-Arg-Ile-Ser-Cys)-Tyr-[Arg mimetic]-NH2) (peptide) ; system used: non-selective somatostatin receptor (sst)
Result string: 4.2

Where these numbers come from: paper PMC4070431
